molecular target: recombinant human GR (Homo sapiens); construct: purchased Panvera/Invitrogen P2812 (kit P2893); assay: Human Glucocorticoid Receptor (GR) Assay (fluorescence polarization, Panvera/Invitrogen kit); format: binding; conditions: fluorescence polarization; GS Red tracer; 2 hours at room temperature; 100% control 10 μM Dexamethasone; read-out: Inhibition of GR binding, IC50
Property: log10 IC50; scope: individual molecules
Lab note - IC50 converted to log10 from values in nM.

CCSC(=O)[C@@]1(OC(=O)c2snnc2C)CC[C@H]2[C@@H]3CCC4=Cc5c(cnn5-c5ccc(F)cc5)C[C@]4(C)[C@H]3[C@@H](O)C[C@@]21C [Example 5]
1.18

Answer with reported log10 IC50 of C[C@]12Cc3cnn(-c4ccc(F)nc4)c3C=C1CC[C@H]1[C@@H]3CC[C@](OC(=O)C4CC4)(C(=O)SCC#N)[C@@]3(C)C[C@H](O)[C@@]12F [Example 207]
0.52

Answer with reported log10 IC50 of C=C(CSC(=O)[C@@]1(OC(=O)c2ccco2)CC[C@H]2[C@@H]3CCC4=Cc5c(cnn5-c5ccc(F)cc5)C[C@]4(C)[C@H]3[C@@H](O)C[C@@]21C)OCOC [Example 88]
1.11

Answer with reported log10 IC50 of C[C@]12Cc3cnn(-c4ccccn4)c3C=C1CC[C@@H]1[C@@H]2[C@@H](O)C[C@@]2(C)[C@H]1CC[C@]2(OC(=O)C1CC1)C(=O)SCF [Example 149]
0.70

Answer with reported log10 IC50 of CCC(=O)O[C@]1(C(=O)SC)CC[C@H]2[C@@H]3CCC4=Cc5c(cnn5-c5ccc(F)cc5)C[C@]4(C)[C@H]3[C@@H](O)C[C@@]21C [Example 21]
0.43

Answer with reported log10 IC50 of C[C@]12Cc3cnn(-c4ccc(S(C)(=O)=O)cc4)c3C=C1CC[C@@H]1[C@@H]2[C@@H](O)C[C@@]2(C)[C@H]1CC[C@]2(OC(=O)c1ccco1)C(=O)SCC#N [Example 106]
2.20

---

Property: pIC50; scope: individual compounds
target: recombinant human GR (Homo sapiens, UniProt P04150); construct: purchased Panvera/Invitrogen P2812 (kit P2893); assay: Human Glucocorticoid Receptor (GR) Assay (fluorescence polarization, Panvera/Invitrogen kit); assay type: binding; settings: fluorescence polarization; GS Red tracer; 2 hours at room temperature; 100% control 10 μM Dexamethasone; read-out: Inhibition of GR binding, IC50
Sequence (P04150 whole entry): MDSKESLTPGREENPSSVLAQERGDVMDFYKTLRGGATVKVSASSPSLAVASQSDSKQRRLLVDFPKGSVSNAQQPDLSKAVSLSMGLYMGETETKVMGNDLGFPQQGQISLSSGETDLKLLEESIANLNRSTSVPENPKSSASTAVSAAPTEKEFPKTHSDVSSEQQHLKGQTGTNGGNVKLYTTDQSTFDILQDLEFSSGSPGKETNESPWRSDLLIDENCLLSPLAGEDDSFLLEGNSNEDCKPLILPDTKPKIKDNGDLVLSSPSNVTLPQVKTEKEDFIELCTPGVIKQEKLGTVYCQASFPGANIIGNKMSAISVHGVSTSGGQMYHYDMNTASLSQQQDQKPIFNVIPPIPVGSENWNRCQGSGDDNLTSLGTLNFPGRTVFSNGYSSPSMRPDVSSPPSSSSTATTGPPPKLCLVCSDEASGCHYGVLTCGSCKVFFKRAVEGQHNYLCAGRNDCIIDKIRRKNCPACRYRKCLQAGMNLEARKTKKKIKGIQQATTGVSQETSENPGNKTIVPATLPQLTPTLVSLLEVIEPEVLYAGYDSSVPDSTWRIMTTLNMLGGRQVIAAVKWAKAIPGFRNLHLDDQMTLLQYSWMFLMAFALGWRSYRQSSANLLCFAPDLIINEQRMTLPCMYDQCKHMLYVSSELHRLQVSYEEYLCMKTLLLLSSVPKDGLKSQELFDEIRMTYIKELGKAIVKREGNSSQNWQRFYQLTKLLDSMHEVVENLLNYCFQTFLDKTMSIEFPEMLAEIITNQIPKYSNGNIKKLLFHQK
// returns pIC50 (minus log10 of molar concentration), number only

C[C@]12Cc3cnn(-c4ccc(F)c(CO)c4)c3C=C1CC[C@@H]1[C@@H]2[C@@H](O)C[C@@]2(C)[C@H]1CC[C@]2(OC(=O)C1CC1)C(=O)OCC#N
8.49
C[C@]12Cc3cnn(-c4ccc(F)cc4)c3C=C1CC[C@@H]1[C@@H]2[C@@H](O)C[C@@]2(C)[C@H]1CC[C@]2(OC(=O)c1nccs1)C(=O)SCCO
8.54
Cc1ncsc1C(=O)O[C@]1(C(=O)SCF)CC[C@H]2[C@@H]3CCC4=Cc5c(cnn5-c5ccc(F)cc5)C[C@]4(C)[C@H]3[C@@H](O)C[C@@]21C
8.12
CSCC(=O)[C@@]1(OC(C)=O)CC[C@H]2[C@@H]3CCC4=Cc5c(cnn5-c5ccc(F)cc5)C[C@]4(C)[C@H]3[C@@H](O)C[C@@]21C
8.62

Answer with reported pIC50 of "CCSC(=O)COC(=O)[C@@]1(OC(C)=O)CC[C@H]2[C@@H]3CCC4=Cc5c(cnn5-c5ccc(F)cc5)C[C@]4(C)[C@H]3[C@@H](O)C[C@@]21C"
8.18

---

molecular target: recombinant human GR (Homo sapiens, UniProt P04150); construct: purchased Panvera/Invitrogen P2812 (kit P2893); assay: Human Glucocorticoid Receptor (GR) Assay (fluorescence polarization, Panvera/Invitrogen kit); type: binding; conditions: fluorescence polarization; GS Red tracer; 2 hours at room temperature; 100% control 10 μM Dexamethasone; read-out: Inhibition of GR binding, IC50
measure: pIC50
// returns pIC50 (minus log10 of molar concentration), number only

Examples from the recorded data:
COCC(=O)O[C@]1(C(=O)SCC#N)CC[C@H]2[C@@H]3CCC4=Cc5c(cnn5-c5ccc(F)c(CO)c5)C[C@]4(C)[C@H]3[C@@H](O)C[C@@]21C [Example 140]
8.64
COCCC(=O)O[C@]1(C(=O)SCF)CC[C@H]2[C@@H]3CCC4=Cc5c(cnn5-c5ccc(F)cc5)C[C@]4(C)[C@H]3[C@@H](O)C[C@@]21C [Example 63]
8.48

Answer with reported pIC50 of CC(C)OC(=O)O[C@]1(C(=O)SCC#N)CC[C@H]2[C@@H]3CCC4=Cc5c(cnn5-c5ccc(F)cc5)C[C@]4(C)[C@H]3[C@@H](O)C[C@@]21C [Example 68]
7.92

Answer with reported pIC50 of C[C@]12Cc3cnn(-c4ccc(F)cc4)c3C=C1CC[C@@H]1[C@@H]2[C@@H](O)C[C@@]2(C)[C@H]1CC[C@]2(OC(=O)C1CCOCC1)C(=O)SCC#N [Example 126]
8.57

Answer with reported pIC50 of C[C@]12Cc3cnn(-c4ccc(F)cc4)c3C=C1CC[C@H]1[C@@H]3CC[C@](OC(=O)c4cocn4)(C(=O)SCF)[C@@]3(C)C[C@H](O)[C@@]12F [Example 202]
8.24

Answer with reported pIC50 of C[C@]12Cc3cnn(-c4ccc(F)nc4)c3C=C1CC[C@@H]1[C@@H]2[C@@H](O)C[C@@]2(C)[C@H]1CC[C@]2(OC(=O)c1ccco1)C(=O)SCCO [Example 168]
8.28

Answer with reported pIC50 of C[C@]12Cc3cnn(-c4ccc(F)nc4)c3C=C1CC[C@@H]1[C@@H]2[C@@H](O)C[C@@]2(C)[C@H]1CC[C@]2(OC(=O)c1ccco1)C(=O)SCC#N [Example 166]
8.24

Answer with reported pIC50 of C[C@]12Cc3cnn(-c4ccc(F)cc4)c3C=C1CC[C@@H]1[C@@H]2[C@@H](O)C[C@@]2(C)[C@H]1CC[C@]2(OC(=O)c1ccno1)C(=O)SCCO [Example 61]
8.08

Answer with reported pIC50 of C[C@]12Cc3cnn(-c4ccc(F)cc4)c3C=C1CC[C@@H]1[C@@H]2[C@@H](O)C[C@@]2(C)[C@H]1CC[C@]2(OC(=O)C1CC1)C(=O)SCC#CCO [Example 37]
8.24

Answer with reported pIC50 of C[C@]12Cc3cnn(-c4ccc(F)cc4)c3C=C1CC[C@@H]1[C@@H]2[C@@H](O)C[C@@]2(C)[C@H]1CC[C@]2(OC(=O)c1cccs1)C(=O)SCC#N [Example 115]
8.00

---

biological target: recombinant human GR (Homo sapiens); construct: purchased Panvera/Invitrogen P2812 (kit P2893); assay: Human Glucocorticoid Receptor (GR) Assay (fluorescence polarization, Panvera/Invitrogen kit); format: binding; conditions: fluorescence polarization; GS Red tracer; 2 hours at room temperature; 100% control 10 μM Dexamethasone; read-out: Inhibition of GR binding, IC50
measure: pIC50
// returns pIC50 (minus log10 of molar concentration), number only

C[C@]12Cc3cnn(-c4ccc(F)cc4)c3C=C1CC[C@@H]1[C@@H]2[C@@H](O)C[C@@]2(C)[C@H]1CC[C@]2(OC(=O)c1ccno1)C(=O)SCC#N
8.41
C[C@]12Cc3cnn(-c4ccc(F)cc4)c3C=C1CC[C@@H]1[C@@H]2[C@@H](O)C[C@@]2(C)[C@H]1CC[C@]2(OC(=O)c1cocn1)C(=O)SCCO
8.54
CSC(=O)[C@@]1(OC(=O)C2CC2)CC[C@H]2[C@@H]3CCC4=Cc5c(cnn5-c5ccc(F)nc5)C[C@]4(C)[C@H]3[C@@H](O)C[C@@]21C
8.62
COCC(=O)O[C@]1(C(=O)SCF)CC[C@H]2[C@@H]3CCC4=Cc5c(cnn5-c5ccc(F)cc5)C[C@]4(C)[C@@]3(F)[C@@H](O)C[C@@]21C
8.59

Let us examine a further case.
Write down the reported pIC50 (system: recombinant human GR (Homo sapiens)) of "C[C@]12Cc3cnn(-c4ccc(F)nc4)c3C=C1CC[C@@H]1[C@@H]2[C@@H](O)C[C@@]2(C)[C@H]1CC[C@]2(OC(=O)[C@H]1CCCO1)C(=O)SCC#N"
8.57

---

target: recombinant human GR (Homo sapiens); construct: purchased Panvera/Invitrogen P2812 (kit P2893); experiment: Human Glucocorticoid Receptor (GR) Assay (fluorescence polarization, Panvera/Invitrogen kit); format: binding; settings: fluorescence polarization; GS Red tracer; 2 hours at room temperature; 100% control 10 μM Dexamethasone; read-out: Inhibition of GR binding, IC50
measure: IC50 (nM)
Your answer should be a plain number; it is taken to be in nM.

Examples from the recorded data:
COCC(=O)O[C@]1(C(=O)SCF)CC[C@H]2[C@@H]3CCC4=Cc5c(cnn5-c5ccc(F)cc5)C[C@]4(C)[C@H]3[C@@H](O)C[C@@]21C
1.7
C[C@]12Cc3cnn(-c4ccc(F)c(CO)c4)c3C=C1CC[C@@H]1[C@@H]2[C@@H](O)C[C@@]2(C)[C@H]1CC[C@]2(OC(=O)C1CC1)C(=O)SCF
3.5
C[C@]12Cc3cnn(-c4ccc(F)cc4)c3C=C1CC[C@@H]1[C@@H]2[C@@H](O)C[C@@]2(C)[C@H]1CC[C@]2(OC(=O)c1ccco1)C(=O)OCC#N
2.6

Answer with reported IC50 of "CC(=O)CSC(=O)[C@@]1(OC(=O)c2ccco2)CC[C@H]2[C@@H]3CCC4=Cc5c(cnn5-c5ccc(F)cc5)C[C@]4(C)[C@H]3[C@@H](O)C[C@@]21C"
6.9

Answer with reported IC50 of "C[C@]12Cc3cnn(-c4ccc(F)nc4)c3C=C1CC[C@@H]1[C@@H]2[C@@H](O)C[C@@]2(C)[C@H]1CC[C@]2(OC(=O)c1cocn1)C(=O)SCCO"
1.8

Answer with reported IC50 of "C[C@]12Cc3cnn(-c4ccc(F)cc4)c3C=C1CC[C@@H]1[C@@H]2[C@@H](O)C[C@@]2(C)[C@H]1CC[C@]2(OC(=O)C1CC1)C(=O)SCCO"
2.5

Answer with reported IC50 of "Cn1cccc1C(=O)O[C@]1(C(=O)SCCO)CC[C@H]2[C@@H]3CCC4=Cc5c(cnn5-c5ccc(F)cc5)C[C@]4(C)[C@H]3[C@@H](O)C[C@@]21C"
7.6

Answer with reported IC50 of "C[C@]12Cc3cnn(-c4ccc(F)cc4)c3C=C1CC[C@@H]1[C@@H]2[C@@H](O)C[C@@]2(C)[C@H]1CC[C@]2(OC(=O)c1ccco1)C(=O)SCCCO"
4

Answer with reported IC50 of "C[C@]12Cc3cnn(-c4ccc(F)nc4)c3C=C1CC[C@H]1[C@@H]3CC[C@](OC(=O)c4ccco4)(C(=O)SCF)[C@@]3(C)C[C@H](O)[C@@]12F"
2.1

Answer with reported IC50 of "C[C@]12Cc3cnn(-c4ccc(F)cc4)c3C=C1CC[C@@H]1[C@@H]2[C@@H](O)C[C@@]2(C)[C@H]1CC[C@]2(OC(=O)C1CC1)C(=O)SCC#N"
5
